Experiment: Pharmacokinetic study after single intravenous injection
Type: in vivo, SD rats
Conditions: Sprague-Dawley, rat, plasma, female SD rats, 10 mg/kg i.v.
Description: 12 SD rats were divided into 2 groups of 6 (half are male and half female). […] The body weights were measured once before administration. Administration was performed by single intravenous injection for 20 min per animal. PK measurement was performed once before administration and 5 min, 30 min, 1 h, 4 h, 8 h, 24 h, 48 h, 72 h and 96 h after administration. A histamine assay was performed once before administration and 30 min, 4 h, 8 h and 24 h after administration.
readout type: Cmax (ng/mL)
Write down the numeric answer in ng/mL and omit the unit.

stdin: Look up Cmax: CCCCCOc1ccc(-c2ccc(-c3ccc(C(=O)N[C@H]4C[C@@H](O)[C@@H](OC[C@H]5CCC[N+]5(C)C)NC(=O)[C@@H]5[C@@H](O)[C@@H](C)CN5C(=O)[C@H]([C@@H](C)O)NC(=O)[C@H]([C@H](O)[C@@H](O)c5ccc(O)cc5)NC(=O)[C@@H]5C[C@@H](O)CN5C(=O)[C@H]([C@@H](C)O)NC4=O)cc3)cc2)cc1
stdout: 9300

The origin of these recorded values is patent US20240262866A1.
